# Measurement Target: PHD2181-417 (Homo sapiens, UniProt Q9GZT9)
# Construct: histidine tag (N, cleaved yes); Smt3 (SUMO) tag (N, cleaved yes); made in house; host or cells: E. coli BL21 (pBAD vector)
# Sequence (Q9GZT9 181-417): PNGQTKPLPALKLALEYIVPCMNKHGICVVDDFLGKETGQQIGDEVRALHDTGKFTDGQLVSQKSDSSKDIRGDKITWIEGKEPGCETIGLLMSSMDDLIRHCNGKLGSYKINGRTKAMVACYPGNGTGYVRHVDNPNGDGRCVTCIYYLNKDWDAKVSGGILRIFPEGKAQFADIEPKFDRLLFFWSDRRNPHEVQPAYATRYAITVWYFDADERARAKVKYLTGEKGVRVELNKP
# Protocol Text: PHD enzyme activity assay ([14C]-succinic acid production);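 note: enzyme expressed in E. coli BL21, assayed in Tris-HCl pH 7.5 with catalase, DTT and ascorbate, [14C]-succinic acid beta-counted after DNP precipitation of residual 2-oxoglutarate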
# Assay type: biochemical
# Run Parameters: inhibition of PHD2181-417 activity; HIF-1α peptide 10 μM, [5-14C]-2-oxoglutaric acid, 10 minutes; read-out: Enzyme pIC50 (converted)
Parameter Measured: IC50

| Compound | IC50 |
| --- | --- |
| O=C(O)c1cn(-c2nc3cc(Cl)c(Cl)cc3[nH]2)nc1C(F)(F)F [Example 56] | > 10 µM |
| O=C(O)c1cn(-c2nc3cc(Br)ccc3[nH]2)nc1C(F)(F)F [Example 55] | > 100 µM |

Continue with the next compound.
// query Find IC50 for C[C@@H](NC(=O)c1nc2ccc(I)cc2[nH]1)C(=O)O [Example 54] on PHD2181-417 (Homo sapiens, UniProt Q9GZT9) and write it down.
// result > 100 µM
